# Test system: biotinyl-Trp-oxazolone
# Measurement Notes: self-aminoacylation, catalytic enhancement (BWO) (fold over background); higher = more active; k-Seq, kA / k0A0; sequences stand for … in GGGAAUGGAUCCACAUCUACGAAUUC…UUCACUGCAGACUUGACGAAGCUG
This sample holds only a part of the variants without activity.
Measurement Type: self-aminoacylation
Hey, just send me the number, nothing else.

Request: Param item = AAUUUUGCUAAUAGUCGCGAG [Fam3.1 aminoacylation ribozyme variant] ; retrieve measured self-aminoacylation.
Response: 2.02

Request: And then AUUUACCUAGCUCAUCGGGUG [Fam2.2 aminoacylation ribozyme variant] , what is it?
Response: 2.04

Request: And then CUUACACUGGUCAUCGAGUGA [Fam2.1 aminoacylation ribozyme variant] , what is it?
Response: 4.94
